- EXPERIMENTAL PROTOCOL: Thickening agent solution equivalent to the standard
- Type: physicochemical
- ASSAY SETUP: at concentration tested (g/L): alginate 10, modified corn starch 34, amylopectin 67, carrageenans 3, chitosan 100, dextrin 46, guar 2, xanthan 2, glycerol 860, konjac 4, Carbomer 940 4, Gel Maker EMU 4.4, PVP 60, carboxymethylcellulose 30, hydroxypropylcellulose 30, calcium chloride 280, potassium chloride 280, potassium sulfate 140
QUANTITY NAME: Equivalent to the standard

> print(dat)
                                   compound  observed
1           [Cl-].[K+] [Potassium chloride]        No
2     [Ca+2].[Cl-].[Cl-] [Calcium chloride]        No
3                                  OCC(O)CO       Yes
4  O=S(=O)([O-])[O-].[K+].[K+] [Potassium sulfate]        no
